biological target: SMARCA2 (Homo sapiens, UniProt P51531); test: MSD SMARCA2 degradation in A549 cell line; type: cell-based; settings: A549, A549 cells, 24 h
Sequence (P51531 whole entry): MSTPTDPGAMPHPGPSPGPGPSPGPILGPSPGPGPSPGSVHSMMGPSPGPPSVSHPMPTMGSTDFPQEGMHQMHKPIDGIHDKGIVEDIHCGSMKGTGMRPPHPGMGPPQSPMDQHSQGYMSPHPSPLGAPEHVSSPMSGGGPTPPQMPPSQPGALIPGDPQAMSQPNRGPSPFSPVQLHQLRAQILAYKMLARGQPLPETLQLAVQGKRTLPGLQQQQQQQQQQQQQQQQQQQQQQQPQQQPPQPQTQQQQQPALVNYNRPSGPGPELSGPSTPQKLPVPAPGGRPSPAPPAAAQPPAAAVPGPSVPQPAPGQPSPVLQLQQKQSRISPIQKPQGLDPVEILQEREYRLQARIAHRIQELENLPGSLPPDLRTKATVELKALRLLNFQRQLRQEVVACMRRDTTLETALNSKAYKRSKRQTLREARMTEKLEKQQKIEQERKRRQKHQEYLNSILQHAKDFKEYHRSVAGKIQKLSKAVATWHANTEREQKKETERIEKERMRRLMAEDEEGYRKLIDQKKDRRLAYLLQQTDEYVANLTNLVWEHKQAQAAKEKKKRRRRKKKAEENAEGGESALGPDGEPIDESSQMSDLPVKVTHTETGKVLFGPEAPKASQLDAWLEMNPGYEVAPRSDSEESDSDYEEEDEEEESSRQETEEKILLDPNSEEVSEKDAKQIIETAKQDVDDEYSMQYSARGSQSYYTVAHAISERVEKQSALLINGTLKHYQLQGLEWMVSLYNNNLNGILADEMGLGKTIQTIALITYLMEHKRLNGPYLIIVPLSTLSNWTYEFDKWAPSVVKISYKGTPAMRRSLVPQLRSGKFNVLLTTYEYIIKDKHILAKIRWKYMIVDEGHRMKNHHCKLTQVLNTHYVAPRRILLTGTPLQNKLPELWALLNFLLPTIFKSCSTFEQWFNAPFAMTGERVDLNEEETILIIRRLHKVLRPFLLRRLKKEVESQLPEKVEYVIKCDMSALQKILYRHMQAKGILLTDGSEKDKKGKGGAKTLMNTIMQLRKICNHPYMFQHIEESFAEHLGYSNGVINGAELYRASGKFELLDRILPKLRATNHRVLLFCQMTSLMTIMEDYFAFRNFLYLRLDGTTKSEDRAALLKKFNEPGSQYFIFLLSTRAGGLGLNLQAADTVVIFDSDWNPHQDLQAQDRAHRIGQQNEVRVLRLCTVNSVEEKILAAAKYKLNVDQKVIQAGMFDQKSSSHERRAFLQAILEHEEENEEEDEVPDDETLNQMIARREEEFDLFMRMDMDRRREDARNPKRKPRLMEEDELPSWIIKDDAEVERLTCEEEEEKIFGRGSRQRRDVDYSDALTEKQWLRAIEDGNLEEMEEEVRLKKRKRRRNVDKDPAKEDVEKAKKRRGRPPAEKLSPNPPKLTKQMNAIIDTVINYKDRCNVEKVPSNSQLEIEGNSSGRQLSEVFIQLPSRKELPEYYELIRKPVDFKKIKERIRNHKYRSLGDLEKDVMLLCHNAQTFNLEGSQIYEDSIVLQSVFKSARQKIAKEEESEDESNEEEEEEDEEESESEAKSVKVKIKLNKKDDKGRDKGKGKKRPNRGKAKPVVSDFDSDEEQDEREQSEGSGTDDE
The molecules listed here are annotated with their Dmax.
measured-endpoint: Dmax

[
  {
    "structure-as-smiles": "C#Cc1ccc([C@H](C)NC(=O)[C@@H]2C[C@@H](O)CN2C(=O)[C@@H](NC(=O)N2CC3(CC(N4CCN(c5cnc(N6CCc7[nH]c8nnc(-c9ccccc9O)cc8c7[C@H]6C)nc5)CC4)C3)C2)C(C)(C)CCO)cc1",
    "measured-endpoint": "Dmax",
    "reported-value": "> 90%"
  },
  {
    "structure-as-smiles": "C#Cc1ccc(CNC(=O)[C@@H]2C[C@@H](O)CN2C(=O)[C@@H](NC(=O)N2CC3(CC(N4CCC(c5cnc(N6CCc7[nH]c8nnc(-c9ccccc9O)cc8c7[C@H]6C)nc5)CC4)C3)C2)C(C)(C)C)c(OC)c1",
    "measured-endpoint": "Dmax",
    "reported-value": "> 90%"
  }
]
